molecular target: AgRvs167; test: SPOT peptide array binding signal intensity (averaged, normalized) (arbitrary units (background-subtracted, floor 0; scale differs between SH3 domains)); higher = stronger binding of the SH3 domain to the peptide
Label rule, in plain words: SPOT peptide array binding signal intensity of 6 and up is Yes, under 6 is No.

// query Assess whether reported SPOT peptide array binding signal intensity for TPRLSLPRLPNKHHW sits at 6 or higher.
// result No

// query Assess whether reported SPOT peptide array binding signal intensity for ALRRRLPVTRSKINW sits at 6 or higher.
// result Yes

// query Assess whether reported SPOT peptide array binding signal intensity for RKNRAPPQRPRFNRE sits at 6 or higher.
// result Yes

// query Assess whether reported SPOT peptide array binding signal intensity for GKKVRPLLVLLLSRA sits at 6 or higher.
// result No

// query Assess whether reported SPOT peptide array binding signal intensity for QPWTDQFEKLEKEVS sits at 6 or higher.
// result No

// query Assess whether reported SPOT peptide array binding signal intensity for FIRKRAPTPPAPSRS sits at 6 or higher.
// result No

// query Assess whether reported SPOT peptide array binding signal intensity for GAGERPRLVPRPINV sits at 6 or higher.
// result No

Values were extracted from the supplement of paper PMC4466140.
